Entry source: ChEMBL document CHEMBL4270658

pIC50: −log10 of the molar value.
Reported pIC50, Prostaglandin G/H synthase 1 (Ovis aries, UniProt P05979).
measurementType: pIC50

[[record]]
moleculesmiles = "N#CCC(=O)N/N=C/c1c[nH]c2ccccc12"
readoutvalue = 5.81

[[record]]
moleculesmiles = "N#CCC(=O)N/N=C/c1c[nH]c2ccc(Br)cc12"
readoutvalue = 6.74


----------
# pIC50 annotations
- studyTarget: Prostaglandin G/H synthase 2 (Homo sapiens)
- Sequence (P35354 whole entry): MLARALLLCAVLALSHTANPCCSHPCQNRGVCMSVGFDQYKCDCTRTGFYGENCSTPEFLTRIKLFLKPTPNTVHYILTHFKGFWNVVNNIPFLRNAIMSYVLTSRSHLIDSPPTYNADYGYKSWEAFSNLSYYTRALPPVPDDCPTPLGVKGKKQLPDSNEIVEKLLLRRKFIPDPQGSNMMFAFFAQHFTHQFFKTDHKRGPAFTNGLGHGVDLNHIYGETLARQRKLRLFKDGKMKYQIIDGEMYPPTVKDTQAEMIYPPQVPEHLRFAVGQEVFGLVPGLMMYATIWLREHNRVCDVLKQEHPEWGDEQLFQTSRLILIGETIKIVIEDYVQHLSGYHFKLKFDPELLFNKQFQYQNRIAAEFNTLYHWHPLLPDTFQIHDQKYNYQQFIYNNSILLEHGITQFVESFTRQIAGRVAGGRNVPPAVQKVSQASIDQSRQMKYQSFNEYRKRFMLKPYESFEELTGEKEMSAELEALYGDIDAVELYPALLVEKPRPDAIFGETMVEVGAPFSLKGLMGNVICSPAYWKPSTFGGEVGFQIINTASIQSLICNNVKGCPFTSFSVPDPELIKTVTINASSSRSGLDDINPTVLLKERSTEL
- assayText: Inhibition of recombinant N-terminal His6-tagged human COX-2 expressed in Baculovirus infected Sf21 cells using arachidonic acid as substrate preincubated for 5 mins followed by substrate addition measured after 1 hr
pIC50: −log10 of the molar value.
measurementType: pIC50

[[record]]
moleculesmiles = "N#CCC(=O)N/N=C/c1c[nH]c2ccc(Br)cc12"
readoutvalue = 6.60

[[record]]
moleculesmiles = "N#CCC(=O)N/N=C/c1c[nH]c2ccccc12"
readoutvalue = 5.99


----------
- assayText: Cytotoxicity against mouse J774 macrophages after 72 hrs by Alamar Blue assay
- Assay type: cell-based
# CC50 at 72 h annotations
measurementType: CC50 at 72 h (µM)

[[record]]
moleculesmiles = "N#CCC(=O)N/N=C/c1c[nH]c2ccc(C#N)cc12"
readoutvalue = 69.4

[[record]]
moleculesmiles = "N#CCC(=O)N/N=C/c1c[nH]c2ccccc12"
readoutvalue = 150

[[record]]
moleculesmiles = "Cc1cccc2c(/C=N/NC(=O)CC#N)c[nH]c12"
readoutvalue = 146

[[record]]
moleculesmiles = "N#CCC(=O)N/N=C/c1c[nH]c2cccc([N+](=O)[O-])c12"
readoutvalue = 66

[[record]]
moleculesmiles = "N#CCC(=O)N/N=C/c1c[nH]c2ccc(Cl)cc12"
readoutvalue = 76.9

[[record]]
moleculesmiles = "N#CCC(=O)N/N=C/c1c[nH]c2ccc(Br)cc12"
readoutvalue = 144


----------
- assayText: Cytotoxicity against mouse J774 macrophages after 72 hrs by Alamar Blue assay
- Assay type: cell-based
measurementType: CC50 at 72 h (µM)

[[record]]
moleculesmiles = "Cc1ccc2[nH]cc(/C=N/NC(=O)CC#N)c2c1"
unitofmeasurement = "µM"
readoutvalue = 200

[[record]]
moleculesmiles = "COc1ccc2[nH]cc(/C=N/NC(=O)CC#N)c2c1"
unitofmeasurement = "µM"
readoutvalue = 101

[[record]]
moleculesmiles = "N#CCC(=O)N/N=C/c1c[nH]c2ncccc12"
unitofmeasurement = "µM"
readoutvalue = 107

[[record]]
moleculesmiles = "N#CCC(=O)N/N=C/c1c[nH]c2c1ccc1ccccc12"
unitofmeasurement = "µM"
readoutvalue = 78.5

